Listed next: entries and their corresponding PBM E-score.
target_system: Sut1 (UniProt P53032)
Sequence: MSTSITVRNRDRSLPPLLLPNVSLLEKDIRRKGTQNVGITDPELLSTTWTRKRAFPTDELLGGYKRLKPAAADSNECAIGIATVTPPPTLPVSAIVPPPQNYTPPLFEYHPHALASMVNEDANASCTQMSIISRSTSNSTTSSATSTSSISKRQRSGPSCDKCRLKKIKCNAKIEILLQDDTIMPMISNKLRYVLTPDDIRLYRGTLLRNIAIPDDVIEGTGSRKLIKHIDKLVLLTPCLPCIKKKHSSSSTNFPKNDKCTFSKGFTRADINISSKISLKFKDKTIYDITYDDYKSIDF
assay: PBM E-score (8-mer binding enrichment) (E-score (-0.5 to 0.5)); higher = stronger / more preferred TF binding
particulars: protein concentration: 200 nM; construct: GST-full length
In all, about 33,000 sequences were measured (“E-score (-0.5 to 0.5)”: median about -0.017, highest 2% from about 0.3 on). The sample as a whole holds a higher share of the highest values than the screen did.
assay_endpoint: PBM E-score

residue_sequence: AGAATCCA
endpoint_value: 0.00183
//
residue_sequence: ATAACGGA
endpoint_value: 0.341
//
residue_sequence: AAAAATAA
endpoint_value: 0.326
//
residue_sequence: GGAAATAA
endpoint_value: 0.24
//
residue_sequence: GCCGGCGA
endpoint_value: 0.0246
//
residue_sequence: AAGGTCTC
endpoint_value: -0.0653
//
residue_sequence: ATTCCCTC
endpoint_value: -0.233
//
residue_sequence: ACCGGCAA
endpoint_value: -0.198
//
residue_sequence: GTAACGGA
endpoint_value: 0.329
//
residue_sequence: CGAAATAA
endpoint_value: 0.313
//
residue_sequence: CTAGGCCA
endpoint_value: -0.145
//
residue_sequence: TCTTAGAA
endpoint_value: 0.283
//
residue_sequence: ACAAATAT
endpoint_value: 0.339
//
residue_sequence: ACTCGCTA
endpoint_value: 0.0713
//
residue_sequence: CAAAATTG
endpoint_value: 0.0231
//
residue_sequence: CACAGCAC
endpoint_value: -0.205
//
residue_sequence: CAGAGAAC
endpoint_value: -0.299
//
residue_sequence: CTTCTGGA
endpoint_value: -0.0307
//
residue_sequence: AAGCCTAG
endpoint_value: -0.183
//
residue_sequence: ATATGCAC
endpoint_value: 0.133
//
residue_sequence: ATCCAGAC
endpoint_value: -0.0133
//
residue_sequence: AAGTCTGA
endpoint_value: -0.193

====

target_system: Sut1 (UniProt P53032)
Sequence: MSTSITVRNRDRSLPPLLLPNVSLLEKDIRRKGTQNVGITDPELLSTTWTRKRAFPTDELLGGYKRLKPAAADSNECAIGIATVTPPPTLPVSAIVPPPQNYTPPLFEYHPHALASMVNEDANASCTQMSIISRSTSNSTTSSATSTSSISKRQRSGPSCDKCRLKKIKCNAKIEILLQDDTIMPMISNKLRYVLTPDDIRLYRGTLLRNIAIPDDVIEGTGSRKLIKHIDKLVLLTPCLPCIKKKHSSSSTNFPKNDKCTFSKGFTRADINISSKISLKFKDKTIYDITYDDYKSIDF
assay: PBM E-score (8-mer binding enrichment) (E-score (-0.5 to 0.5)); higher = stronger / more preferred TF binding
particulars: protein concentration: 200 nM; construct: GST-full length
Over roughly 33,000 sequences, “E-score (-0.5 to 0.5)” has its median near -0.017; the highest 2% begin near 0.3. The sample as a whole holds a higher share of the highest values than the screen did.
Label 1 for high-side PBM E-score (at or above 0.05) and 0 for low-side PBM E-score (below it).

residue_sequence: ACGGTATA
class: 0

residue_sequence: GAGGCATA
class: 0

residue_sequence: CAATTTCA
class: 0

residue_sequence: ATCTCGGG
class: 0

residue_sequence: ACGTAACT
class: 0

residue_sequence: AGATTAAA
class: 1

residue_sequence: AAATTATC
class: 1

residue_sequence: CACTAAGG
class: 0

residue_sequence: GCCAAGGC
class: 0

residue_sequence: ACCAACCG
class: 1

residue_sequence: CGCTCGGA
class: 1

residue_sequence: GCCCGACA
class: 0

residue_sequence: CGCCGGGC
class: 0

residue_sequence: GACCGGGA
class: 0

residue_sequence: GAAATCCC
class: 0

residue_sequence: TCATTAAA
class: 1

residue_sequence: CCGTTCTC
class: 0

residue_sequence: ATCTCGGA
class: 1

residue_sequence: CCCCGACA
class: 0

residue_sequence: AGGACCTA
class: 0

residue_sequence: ATCCGACA
class: 1

residue_sequence: AGCTCGGA
class: 1

residue_sequence: AGGCTACG
class: 0

residue_sequence: GATAGTAC
class: 0

residue_sequence: CATCTGAA
class: 1

residue_sequence: ATACAAAG
class: 1

residue_sequence: CTCCGGGC
class: 1

residue_sequence: GAATTATA
class: 1

residue_sequence: ATACTGGG
class: 0

residue_sequence: CTCCGACC
class: 1

residue_sequence: GGACATCA
class: 1

residue_sequence: ATACAAAA
class: 1

residue_sequence: AATGTGAG
class: 1

residue_sequence: ATCCATTA
class: 1

residue_sequence: ATGGTCGG
class: 1

residue_sequence: AGCCTTCG
class: 0

residue_sequence: CACCGACC
class: 0

residue_sequence: TACTCCAA
class: 0

residue_sequence: GCATTATA
class: 1

residue_sequence: TAATCGTA
class: 1

residue_sequence: TTATCCAA
class: 1

residue_sequence: CGGACCTA
class: 1

residue_sequence: CGGACCTC
class: 1

residue_sequence: CTCTCGAA
class: 0

residue_sequence: ATGACGTA
class: 1

residue_sequence: CACTCCGA
class: 1

residue_sequence: AGCTCGGC
class: 0

residue_sequence: ATCTCGGC
class: 1

residue_sequence: GTCCGGGA
class: 1

residue_sequence: GATACAAA
class: 1

residue_sequence: ATCCGACC
class: 0

residue_sequence: CTCCGGGA
class: 1

residue_sequence: AACAGAAT
class: 0

residue_sequence: ATACAAAC
class: 1

residue_sequence: ACTACAAA
class: 1

residue_sequence: CTATCCAA
class: 1

residue_sequence: CCAAGTTC
class: 0

residue_sequence: GTACAAAC
class: 1

residue_sequence: AGTGATTA
class: 1

residue_sequence: TCTCAGAA
class: 0

residue_sequence: CGAAGATA
class: 1

residue_sequence: AATACAAG
class: 1

residue_sequence: AAACCTAT
class: 1

residue_sequence: AAGCCTGA
class: 0

residue_sequence: ATACAAAT
class: 1

residue_sequence: GCCTCGGA
class: 1

residue_sequence: GGACATCC
class: 0

residue_sequence: CGTCAAGA
class: 0

residue_sequence: ATCCGGGA
class: 1

residue_sequence: GCAGGGAA
class: 0

residue_sequence: CATCTGAC
class: 0

residue_sequence: GACAACGC
class: 0

residue_sequence: CGACATCA
class: 1

residue_sequence: GCATTAAA
class: 1

residue_sequence: CAAGGCCC
class: 0

residue_sequence: AAAACTGA
class: 1

residue_sequence: TCCTCCGA
class: 0

residue_sequence: AATACAAA
class: 1

residue_sequence: AAATTTCA
class: 0

residue_sequence: CACAAACG
class: 1

residue_sequence: ATACAATA
class: 1

residue_sequence: GAATTATC
class: 1

residue_sequence: AACAAGTT
class: 1

residue_sequence: GACTCCTA
class: 0

residue_sequence: CTCCAAAG
class: 0

residue_sequence: GTGGGAAA
class: 0

residue_sequence: GACTCCGA
class: 1

residue_sequence: ACACAGAT
class: 0

residue_sequence: TGCGCAAA
class: 1

====

target_system: Sut1 (UniProt P53032)
Sequence: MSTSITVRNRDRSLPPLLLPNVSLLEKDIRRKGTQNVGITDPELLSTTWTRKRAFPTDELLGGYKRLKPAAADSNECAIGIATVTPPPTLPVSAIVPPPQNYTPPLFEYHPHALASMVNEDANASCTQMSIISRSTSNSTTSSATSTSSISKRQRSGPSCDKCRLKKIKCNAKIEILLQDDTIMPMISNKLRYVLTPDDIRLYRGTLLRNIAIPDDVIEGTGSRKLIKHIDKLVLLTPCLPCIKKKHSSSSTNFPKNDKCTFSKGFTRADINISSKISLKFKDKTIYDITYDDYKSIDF
assay: PBM E-score (8-mer binding enrichment) (E-score (-0.5 to 0.5)); higher = stronger / more preferred TF binding
particulars: protein concentration: 200 nM; construct: GST-full length
In all, about 33,000 sequences were measured (“E-score (-0.5 to 0.5)”: median about -0.017, highest 2% from about 0.3 on). The entries come from a sample that favours the highest values as a whole.
assay_endpoint: PBM E-score

residue_sequence: CAGGTCCG
endpoint_value: 0.438
//
residue_sequence: GAAGATTC
endpoint_value: 0.171
//
residue_sequence: ACCCCGAG
endpoint_value: 0.382
//
residue_sequence: GCTCGGCC
endpoint_value: -0.204
//
residue_sequence: GTTTTAAA
endpoint_value: 0.296
//
residue_sequence: GCTTTGAA
endpoint_value: -0.00621
//
residue_sequence: GTATAAAA
endpoint_value: 0.317
//
residue_sequence: ATGATCGC
endpoint_value: -0.106
//
residue_sequence: AGTTTAAA
endpoint_value: 0.335
//
residue_sequence: CTCTGAGA
endpoint_value: -0.0987
//
residue_sequence: GGACTTAC
endpoint_value: 0.352
//
residue_sequence: ACTCGGCG
endpoint_value: 0.0415
//
residue_sequence: AGACTTAC
endpoint_value: -0.0551
//
residue_sequence: CAGAGTCA
endpoint_value: -0.379
//
residue_sequence: AACTTACT
endpoint_value: 0.0273
//
residue_sequence: GGTCCGAA
endpoint_value: 0.437
//
residue_sequence: AAGGTCCG
endpoint_value: 0.407
//
residue_sequence: CGATTGAG
endpoint_value: -0.0533
//
residue_sequence: AGTGCATG
endpoint_value: -0.0963
//
residue_sequence: AGTTTATC
endpoint_value: 0.17
//
residue_sequence: CAGGTCCC
endpoint_value: -0.182
//
residue_sequence: CGATCCTC
endpoint_value: -0.124
//
residue_sequence: CGCCCGGA
endpoint_value: 0.361
//
residue_sequence: CTTATATC
endpoint_value: 0.222
//
residue_sequence: GCTCGGAA
endpoint_value: 0.165
//
residue_sequence: CGACGGGC
endpoint_value: -0.197
//
residue_sequence: TAACAGGA
endpoint_value: 0.0331
//
residue_sequence: ACTCGGAG
endpoint_value: 0.399
//
residue_sequence: GTAAACGA
endpoint_value: -0.0179
//
residue_sequence: ACGTCTCA
endpoint_value: -0.0462
//
residue_sequence: ATTATATC
endpoint_value: 0.262
//
residue_sequence: CTATAAAA
endpoint_value: 0.183
//
residue_sequence: CGCCCGGC
endpoint_value: -0.0194
//
residue_sequence: ACGCTAAC
endpoint_value: -0.22
//
residue_sequence: CCGACACC
endpoint_value: -0.0623
//
residue_sequence: TTATAAAA
endpoint_value: 0.314
//
residue_sequence: ATATAAAA
endpoint_value: 0.205
//
residue_sequence: GGCCCGGA
endpoint_value: 0.305
//
residue_sequence: CATCTAAG
endpoint_value: -0.107
//
residue_sequence: GTATAAGA
endpoint_value: 0.103
//
residue_sequence: CAGGTCCA
endpoint_value: -0.231
//
residue_sequence: TGTCCTAA
endpoint_value: -0.0608
//
residue_sequence: GGCCCGCA
endpoint_value: -0.113
//
residue_sequence: AGACTTAA
endpoint_value: -0.137
//
residue_sequence: GCTCGGAC
endpoint_value: 0.365
//
residue_sequence: AACCCGAG
endpoint_value: 0.0811
